Reported log10 solubility kinetic values follow for various molecules
Test parameters: buffer; pH 7.4; 200.0 µM
Observable: log10 solubility kinetic (log10 of the value in µg/mL)

{"Molecule": "CCCC(=O)Oc1cccc(C2NC(=O)c3ccccc3O2)c1 (configuration not stated)", "Reported value": 1.27}
{"Molecule": "CCSc1nc2sc3c(c2c(=O)n1-c1ccc(C)cc1)CCN(C)C3", "Reported value": 1.55}
{"Molecule": "CC1CCc2c(sc(NC(=O)c3cccs3)c2C(=O)O)C1 (configuration not stated)", "Reported value": 1.68}
{"Molecule": "CC(=O)C(Cc1ccc(Cl)nc1)Cc1ccc(Cl)nc1", "Reported value": 1.65}
{"Molecule": "Cc1ccc(NC(=O)COC(=O)CCNS(=O)(=O)c2c(Cl)cccc2Cl)cc1", "Reported value": 1.69}
{"Molecule": "O=[N+]([O-])c1ccc2nc(-c3ccccc3)oc2c1", "Reported value": -0.40}

The origin of these recorded values is PubChem BioAssay AID1996.
